Assay: Plasma concentration in CD1 mouse at 1 mg/kg, iv administered as single dose measured after 5 mins
Format: ADME, organism-based
Design: dose 1 mg/kg, route intravenous
metric: concentration at 5 min (nM)
Write the value in nM as a bare number.

Q. Requested read-out: concentration at 5 min. Entry: CO[C@H](C(=O)[C@@H](O)[C@@H](C)O)[C@@H]1Cc2cc3cc(O[C@H]4C[C@@H](O[C@H]5C[C@@H](O)[C@H](O)[C@@H](C)O5)[C@H](O)[C@@H](C)O4)c(C)c(O)c3c(O)c2C(=O)[C@H]1O[C@H]1C[C@@H](O[C@H]2C[C@@H](O[C@H]3C[C@](C)(O)[C@H](O)[C@@H](C)O3)[C@@H](O)[C@@H](C)O2)[C@H](O)[C@@H](C)O1
A. 2700
